Structures can show the parent of a compound that is named as a salt.
reportedMetric: melting point

What value of melting point has been reported for the following compound? COc1ccc(-c2ccc(NC(=O)/C=C/c3ccc(CN4CCCC4)cc3)cc2)cc1
199 to 200 °C

O=C(C#Cc1ccc(CN2CCC(N3CCCC3)CC2)cc1)Nc1ccc(-c2ccc(Cl)cc2)cc1 ?
191 to 192 °C

CCN(CC)CCOc1ccc(NC(=O)C#Cc2ccc(Cl)cc2Cl)cc1 ?
107 to 109 °C

COC1CCN(Cc2ccc(NC(=O)C#Cc3ccc(-c4ccc(Cl)cc4)cc3)cc2)CC1 ?
227 to 234 °C

O=C(C#Cc1ccc(-c2ccc(Cl)cc2)cn1)Nc1ccc(CN2CCC(O)CC2)cc1 ?
186 to 190 °C

CN(Cc1ccc(NC(=O)C#Cc2ccc(-c3ccc(Cl)cc3)cc2)cc1)CC1CC1 ?
164 to 167 °C

O=C(/C=C/c1ccc(CN2CC[C@H](O)C2)cc1)Nc1ccc(-c2ccc(Cl)cc2)cc1 ?
178 to 179 °C

CC1CCN(C2(c3ccc(C#CC(=O)Nc4ccc(-c5ccc(Cl)cc5)cc4)cc3)CC2)CC1 ?
128 to 129 °C

CN(Cc1ccc(CCC(=O)Nc2ccc(-c3ccc(Cl)cc3)cc2)cc1)Cc1cccnc1 ?
168 to 169 °C

CCN(CC)CCOc1ccc(NC(=O)C#Cc2c(Cl)cc(Cl)cc2Cl)cc1Cl (as salt: hydrochloride) ?
188 to 191 °C

O=C(CCc1ccc(CNCC2CC2)cc1)Nc1ccc(-c2ccc(Cl)cc2)cc1 ?
191 to 192 °C

CCN(CC)CCOc1ccc(NC(=O)C#Cc2cccnc2)cc1Cl ?
118 to 120 °C

COc1cc(NC(=O)C#Cc2ccc(C(F)(F)F)cc2Cl)ccc1OCCN1CCc2ccccc2C1 (as salt: formate) ?
92 to 95 °C

COc1cc(NC(=O)C#Cc2ccc(C(F)(F)F)cc2Cl)ccc1OCCN1CC(C)CC(C)C1 (stereo not shown) ?
196 to 201 °C

COc1ccc(-c2ccc(NC(=O)CCc3ccc(CN4CCCC4)cc3)cc2)cc1 ?
185 to 188 °C

CCCN(CCOc1ccc(NC(=O)C#Cc2ccc(C(F)(F)F)cc2Cl)cc1OC)CC1CC1 (as salt: hydrochloride) ?
185 to 188 °C

* * *

Structures can show the parent of a compound that is named as a salt.
Consider the following molecules; for each one, report its melting point.

What value of melting point has been reported for the following molecule? O=C(CCc1ccc(CN2CCC[C@@H]2CO)cc1)Nc1ccc(-c2ccc(Cl)cc2)cc1 [Example 6.8]
156 to 157 °C

CN(C(=O)C#Cc1ccc(CN2CCCC2)cc1)c1ccc(-c2ccc(Cl)cc2)cc1 [Example 1.23] ?
161 to 164 °C

CC(C)N(Cc1ccc(CCC(=O)Nc2ccc(-c3ccc(Cl)cc3)cc2)cc1)C1CCCCC1 [Example 6.40] ?
165 °C

COC1CCN(Cc2ccc(C#CC(=O)Nc3ccc(-c4ccc(Cl)cc4)cc3)cc2)CC1 [Example 1.36] ?
145 to 146 °C

CN(C(=O)CCc1ccc(CN2CCC3(CCCC3)CC2)cc1)c1ccc(-c2ccc(Cl)cc2)cc1 [Example 6.45] ?
119 °C

O=C(CCc1ccc(CNCc2ccccc2)cc1)Nc1ccc(-c2ccc(Cl)cc2)cc1 [Example 6.38] ?
176 °C

O=C(CCc1ccc(CN2CC[C@H](O)C2)cc1)Nc1ccc(-c2ccc(Cl)cc2)cc1 [Example 6.7] ?
171 to 172 °C

CCN(CC)CCOc1ccc(NC(=O)C#Cc2ccc(-c3ccccc3)cc2)cc1Cl [Example 4.4] ?
105 to 108 °C

O=C(C#Cc1ccc(Cl)cc1Cl)Nc1ccc2oc(CCN3CCCC3)nc2c1 [Example 4.12] ?
130 °C

CN(C(=O)C#Cc1ccc(CN2CCC(N3CCCC3)CC2)cc1)c1ccc(-c2ccc(Cl)cc2)cc1 (as salt: trifluoroacetate) [Example 1.24] ?
161 to 164 °C

O=C(CCc1ccc(CN2CCOCC2)cc1)Nc1ccc(-c2ccc(Cl)cc2)cc1 [Example 6.4] ?
193 to 194 °C

O=C(CCc1ccc(CN2CC[C@@H](O)C2)cc1)Nc1ccc(-c2ccc(Cl)cc2)cc1 [Example 6.29] ?
169 to 170 °C

CC1CC(C)CN(Cc2ccc(NC(=O)C#Cc3ccc(-c4ccc(Cl)cc4)cc3)cc2)C1 (stereo not shown) [Example 3.12] ?
209 to 214 °C

CC1CCN(CCOc2ccc(NC(=O)C#Cc3ccc(C(F)(F)F)cc3Cl)cc2)CC1 (as salt: hydrochloride) [Example 3.45] ?
240 to 245 °C

CN(Cc1ccc(C#CC(=O)Nc2ccc(-c3ccc(Cl)cc3)cc2)cc1)CC1CC1 [Example 1.40] ?
181 °C

COc1cc(NC(=O)C#Cc2ccc(C(F)(F)F)cc2Cl)ccc1OCCN1CCC(C(N)=O)CC1 [Example 4.276] ?
150 °C
